All figures here come from patent US20260325654A1.

# System: NCIH727
# Experiment: CellTiter-Glo Reagent cancer cell line proliferation assay, NCIH727
# Assay type: cell-based, human
# Stated conditions: Homo sapiens, NCI-H727, 24 h, NCIH727, KRAS(G12V) heterozygous
Metric: IC50

Molecule	Metric	Observed
[2H]C([2H])([2H])Oc1nc(-c2cc(O)cc3ccc(F)c(C#C)c23)c(F)c2nc(OCC3(CN4CCN(CC5CCN(c6ccc7c(c6)CN(C6CCC(=O)NC6=O)C7=O)CC5)CC4)CC3)nc(N3CC4CCC(C3)N4C(=O)C(C)CC#N)c12 (centres unmarked)	IC50	> 1000 nM

From here, focus on the item given below.
Per the records, this molecule ( C#Cc1c(F)ccc2cc(O)cc(-c3ncc4c(N5CCCOCC5)nc(OCC5(CN6CCN(CC7CCN(c8ccc9c(c8)CN(C8CCC(=O)NC8=O)C9=O)CC7)CC6)CC5)nc4c3F)c12 (centres unmarked) ) has IC50 equal to < 100 nM

----------
# Tested on: AGS
# Experiment: CellTiter-Glo Reagent cancer cell line proliferation assay, AGS
# Type: cell-based, human
# Stated conditions: Homo sapiens, 24 h, KRAS(G12D) heterozygous
pIC50: −log10 of the molar value.
Parameter: pIC50. Scope: all listed entries.

Here is how some molecules turned out for pIC50.
Molecule	Measured target	Observed
C#Cc1cccc2cc(O)cc(-c3ncc4c(N5CC6CCC(C5)N6C(=O)C(F)(F)F)nc(OCC5(CN6CCN(CC7CCN(c8ccc9c(c8)CN(C8CCC(=O)NC8=O)C9=O)CC7)CC6)CC5)nc4c3F)c12 (stereo not shown)	AGS	> 7.00
C#Cc1c(F)ccc2cc(O)cc(-c3ncc4c(N5CC6CCC(C5)N6C(=O)C(C)(C)C#N)nc(OCC5(CN6CCN(CC7CCN(c8ccc9c(c8)CN(C8CCC(=O)NC8=O)C9=O)CC7)CC6)CC5)nc4c3F)c12 (stereo not shown)	AGS	< 6.00
C#Cc1c(F)ccc2cc(O)cc(-c3ncc4c(N5CC6CCC(C5)N6C(=O)CC(C)C#N)nc(OCC5(CN6CCN(CC7CCN(c8ccc9c(c8)CN(C8CCC(=O)NC8=O)C9=O)CC7)CC6)CC5)nc4c3F)c12 (stereo not shown)	AGS	> 7.00

From here, focus on the item given below.
Per the records, this molecule ( C#Cc1c(F)ccc2cc(O)cc(-c3ncc4c(N5CC6CCC(C5)N6C(=O)/C(C#N)=C/C5CC5)nc(OCC5(CN6CCN(CC7CCN(c8ccc9c(c8)CN(C8CCC(=O)NC8=O)C9=O)CC7)CC6)CC5)nc4c3F)c12 (stereo not shown) ) has pIC50 equal to 6.00 to 7.00

----------
# Tested on: AGS
# Experiment: CellTiter-Glo Reagent cancer cell line proliferation assay, AGS
# Format: cell-based, human
# Stated conditions: Homo sapiens, 24 h, KRAS(G12D) heterozygous
Structures can show the parent of a compound that is named as a salt.
Parameter: IC50. Scope: all listed entries.

Compound	IC50
C#Cc1c(F)ccc2cc(O)cc(-c3ncc4c(N5C[C@H]6CC[C@@H](C5)N6)nc(OCC5(CN6CCC(CN7CCC(c8ccc9c(c8)CN(C8CCC(=O)NC8=O)C9=O)C(F)(F)C7)CC6)CC5)nc4c3F)c12 (stereo partly drawn) [Compound 93]	< 100 nM
C#Cc1c(F)ccc2cc(O)cc(-c3nc(OC)c4c(N5CCCO[C@@H]6C[C@@H]65)nc(OCC5(CN6CCN(CC7CCN(c8ccc9c(c8)CN([C@H]8CCC(=O)NC8=O)C9=O)CC7)CC6)CC5)nc4c3F)c12 [Compound 165]	< 100 nM
C#Cc1c(F)ccc2cc(O)cc(-c3nc(OC)c4c(N5CC6CCC(C5)N6C(=O)CC#N)nc(OCC5(CN6CCN(CC7CCN(c8ccc9c(c8)CN(C8CCC(=O)NC8=O)C9=O)CC7)CC6)CC5)nc4c3F)c12 (stereo not drawn) [Compound 102]	> 1000 nM
C#Cc1c(F)ccc2cc(O)cc(-c3nc(OC)c4c(N5CC6CCC(C5)N6C(=O)CCC#N)nc(OCC5(CN6CCN(CC7CCN(c8ccc9c(c8)CN(C8CCC(=O)NC8=O)C9=O)CC7)CC6)CC5)nc4c3F)c12 (stereo not drawn) [Compound 117]	< 100 nM

Per the records, this compound ( C#Cc1cccc2cccc(-c3ncc4c(N5CC6CCC(C5)N6)nc(OCCN5CCN(Cc6ccc7c(c6)C(=O)N(C6CCC(=O)NC6=O)C7=O)CC5)nc4c3F)c12 (stereo not drawn) [Compound 1, hydrochloride] ) has IC50 equal to > 1000 nM

Per the records, this compound ( C#Cc1c(F)ccc2cc(O)cc(-c3nc(OC)c4c(N5CCCO[C@H]6C[C@H]65)nc(OCC5(CN6CCN(CC7CCN(c8ccc9c(c8)CN(C8CCC(=O)NC8=O)C9=O)CC7)CC6)CC5)nc4c3F)c12 (stereo partly drawn) [Compound 164] ) has IC50 equal to < 100 nM

Per the records, this compound ( C#Cc1c(F)ccc2cc(O)cc(-c3ncc4c(N5CC6CCC(C5)N6C(=O)C(C)C#N)nc(OCC5(CN6CCN(CC7CCN(c8ccc9c(c8)CN(C8CCC(=O)NC8=O)C9=O)CC7)CC6)CC5)nc4c3F)c12 (stereo not drawn) [Compound 108] ) has IC50 equal to 100 to 1000 nM

Per the records, this compound ( C#Cc1c(F)ccc2cc(O)cc(-c3ncc4c(N5CCCOCC5)nc(OCC5(CN6CCN(CC7CCN(c8ccc9c(c8)CN(C8CCC(=O)NC8=O)C9=O)CC7)CC6)CC5)nc4c3F)c12 (stereo not drawn) [Compound 134] ) has IC50 equal to < 100 nM

Per the records, this compound ( N#Cc1c(N)sc2c1C1(CCC2)CCCc2c(-c3nc(Cl)cc(OCC4(CN5CCN(CC6CCN(c7ccc8c(c7)CN(C7CCC(=O)NC7=O)C8=O)CC6)CC5)CC4)n3)noc21 (stereo not drawn) [Compound 156] ) has IC50 equal to < 100 nM

----------
# Measured target: KRAS(G12D) (Homo sapiens, UniProt P01116, G12D)
# Sequence (P01116 1-188 isoform P01116-2 G12D): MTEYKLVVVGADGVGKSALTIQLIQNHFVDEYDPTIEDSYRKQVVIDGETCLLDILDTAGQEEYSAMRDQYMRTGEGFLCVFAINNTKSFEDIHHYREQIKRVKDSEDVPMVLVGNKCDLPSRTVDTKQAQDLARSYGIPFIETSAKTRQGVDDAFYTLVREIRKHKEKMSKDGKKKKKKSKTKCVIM
# Experiment: cell-based
# Format: cell-based
# Set-up: Cell lines SW1990 and GP2D that express KRAS(G12D); host or cells: SW1990
# Stated conditions: read-out: WB data SW1990 DC50; SW1990, KRAS degradation, 24 hr
Counter-ions that a name gives are not always drawn.
Metric: DC50

Compound	DC50
C#Cc1c(F)ccc2cc(O)cc(-c3ncc4c(N5C[C@H]6CC[C@@H](C5)N6)nc(OCC5(CN6CC(C#Cc7ccc8c(c7)CN(C7CCC(=O)NC7=O)C8=O)C6)CC5)nc4c3F)c12 (stereo partly drawn) [Compound 90, formate]	> 1 µM
C#Cc1c(F)ccc2cc(O)cc(-c3nc(OC)c4c(N5CC6CCC(C5)N6C(=O)C(F)(F)F)nc(OCC5(CN6CCC(CN7CCN(c8ccc9c(c8)CN(C8CCC(=O)NC8=O)C9=O)CC7)CC6)CC5)nc4c3F)c12 (stereo not drawn)	0.1 to 1 µM

From here, focus on the item given below.
Per the records, this compound ( C#Cc1c(F)ccc2cc(O)cc(-c3ncc4c(N5CC6CCC(C5)N6)nc(OCC5(CN6CCN(CC#Cc7ccc8c(c7)CN(C7CCC(=O)NC7=O)C8=O)CC6)CC5)nc4c3F)c12 (stereo not drawn) ) has DC50 equal to > 1 µM

----------
# Measured target: KRAS(G12C) (Homo sapiens, UniProt P01116, G12C)
# Construct: LU65A that expresses KRAS(G12C); host or cells: LU65A
# Sequence (P01116 1-185 isoform P01116-2 G12C limits assumed): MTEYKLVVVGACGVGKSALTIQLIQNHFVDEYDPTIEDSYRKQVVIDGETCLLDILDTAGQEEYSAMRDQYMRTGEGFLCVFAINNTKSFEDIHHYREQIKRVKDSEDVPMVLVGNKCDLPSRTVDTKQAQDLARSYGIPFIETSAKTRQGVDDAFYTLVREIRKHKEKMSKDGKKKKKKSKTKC
# Experiment: KRAS Western Blot Protein Degradation Assay, LU65A
# Type: cell-based
# Stated conditions: 24 hr, read-out: WB data LU65A DC50
Metric: DC50

Here is how some compounds turned out for DC50.
Compound	Measured target	DC50
O=CO.[2H]C([2H])([2H])Oc1nc(-c2cc(O)cc3ccc(F)c(C#C)c23)c(F)c2nc(OCC3(CN4CCN(CC5CCN(c6ccc7c(c6)CN(C6CCC(=O)NC6=O)C7=O)CC5)CC4)CC3)nc(N3CC4CCC(C3)N4C(=O)CCC#N)c12 (stereo not drawn)	KRAS(G12C) (Homo sapiens, UniProt P01116, G12C)	< 100 nM
C#Cc1c(F)ccc2cc(O)cc(-c3ncc4c(N5CC6CCC(C5)N6C(=O)C5(C#N)CC5)nc(OCC5(CN6CCN(CC7CCN(c8ccc9c(c8)CN(C8CCC(=O)NC8=O)C9=O)CC7)CC6)CC5)nc4c3F)c12 (stereo not drawn)	KRAS(G12C) (Homo sapiens, UniProt P01116, G12C)	100 to 1000 nM
C#Cc1c(F)ccc2cc(O)cc(-c3ncc4c(N5CC6CCC(C5)N6C(=O)C(C)C#N)nc(OCC5(CN6CCN(CC7CCN(c8ccc9c(c8)CN(C8CCC(=O)NC8=O)C9=O)CC7)CC6)CC5)nc4c3F)c12 (stereo not drawn)	KRAS(G12C) (Homo sapiens, UniProt P01116, G12C)	< 100 nM
C#Cc1c(F)ccc2cc(O)cc(-c3ncc4c(N5CC6CCC(C5)N6C(=O)CC#N)nc(OCC5(CN6CCN(CC7CCN(c8ccc9c(c8)CN(C8CCC(=O)NC8=O)C9=O)CC7)CC6)CC5)nc4c3F)c12 (stereo not drawn)	KRAS(G12C) (Homo sapiens, UniProt P01116, G12C)	< 100 nM
C#Cc1c(F)ccc2cc(O)cc(-c3ncc4c(N5CCN(C(=O)C=C)[C@@H](CC#N)C5)nc(OCC5(CN6CCN(CC7CCN(c8ccc9c(c8)CN(C8CCC(=O)NC8=O)C9=O)CC7)CC6)CC5)nc4c3F)c12 (stereo partly drawn)	KRAS(G12C) (Homo sapiens, UniProt P01116, G12C)	< 100 nM

Per the records, this compound ( C#Cc1c(F)ccc2cc(O)cc(-c3ncc4c(N5CCN(C(=O)C(=C)F)[C@@H](CC#N)C5)nc(OCC5(CN6CCN(CC7CCN(c8ccc9c(c8)CN(C8CCC(=O)NC8=O)C9=O)CC7)CC6)CC5)nc4c3F)c12 (stereo partly drawn) ) has DC50 equal to < 100 nM
